Source listed as patent US20230203081A1.

# System: broad panel of different clinical isolates
# Assay Procedure: microbe, parasite or virus in culture
# Format: cell-based
# Reported Conditions: Staphylococcus aureus, S. aureus HAV#211; Clinical

>  <Molecule>
CC(=O)NC[C@H]1CN(c2ccc(N3CCOCC3)c(F)c2)C(=O)O1

>  <Tgt>
broad panel of different clinical isolates

>  <Prefix Operator>
=

>  <MIC / µg/mL>
4

$$$$
>  <Molecule>
CCC[C@@H]1C[C@@H](C(=O)N[C@@H]([C@H]2O[C@H](SC)[C@H](O)[C@@H](O)[C@H]2O)[C@H](C)Cl)N(C)C1 [Clindamycin, clindamycin, reference compound]

>  <Tgt>
broad panel of different clinical isolates

>  <Prefix Operator>
>

>  <MIC / µg/mL>
64

$$$$
>  <Molecule>
CC[C@H]1OC(=O)[C@H](C)[C@@H](O[C@H]2C[C@@](C)(OC)[C@@H](O)[C@H](C)O2)[C@H](C)[C@@H](O[C@@H]2O[C@H](C)C[C@H](N(C)C)[C@H]2O)[C@](C)(O)C[C@@H](C)CN(C)[C@H](C)[C@@H](O)[C@]1(C)O

>  <Tgt>
broad panel of different clinical isolates

>  <Prefix Operator>
>

>  <MIC / µg/mL>
64

$$$$
>  <Molecule>
CSC1O[C@H]([C@H](NC(=O)[C@H]2NC[C@@H]3C[C@H](CC(C)C)CCO[C@H]32)[C@H](C)Cl)C(O)[C@@H](O)[C@H]1O (stereo partly shown) [FSA-513018b]

>  <Tgt>
broad panel of different clinical isolates

>  <Prefix Operator>
=

>  <MIC / µg/mL>
2

$$$$
>  <Molecule>
C[C@H]1c2cccc(O)c2C(=O)C2=C(O)[C@]3(O)C(=O)C(C(N)=O)=C(O)[C@@H](N(C)C)[C@@H]3[C@@H](O)[C@@H]21

>  <Tgt>
broad panel of different clinical isolates

>  <Prefix Operator>
=

>  <MIC / µg/mL>
4

$$$$
>  <Molecule>
CN[C@H](CC(C)C)C(=O)N[C@H]1C(=O)N[C@@H](CC(N)=O)C(=O)N[C@H]2C(=O)N[C@H]3C(=O)N[C@H](C(=O)N[C@H](C(=O)O)c4cc(O)cc(O)c4-c4cc3ccc4O)[C@H](O)c3ccc(c(Cl)c3)Oc3cc2cc(c3O[C@@H]2O[C@H](CO)[C@@H](O)[C@H](O)[C@H]2O[C@H]2C[C@](C)(N)[C@H](O)[C@H](C)O2)Oc2ccc(cc2Cl)[C@H]1O

>  <Tgt>
broad panel of different clinical isolates

>  <Prefix Operator>
=

>  <MIC / µg/mL>
0.5

$$$$
>  <Molecule>
CO/N=C(\C(=O)N[C@@H]1C(=O)N2C(C(=O)O)=C(CSc3nc(=O)c(=O)[nH]n3C)CS[C@H]12)c1csc(N)n1

>  <Tgt>
broad panel of different clinical isolates

>  <Prefix Operator>
>

>  <MIC / µg/mL>
64

$$$$

###

Listed here: items and their measured MIC.
# Tested on: S. aureus MP-549 msrA
# Assay Procedure: microbe, parasite or virus in culture
# Type: cell-based
# Reported Conditions: Staphylococcus aureus, MP549MSRA; S. aureus HAV#032, MP-549; MSR(A)

>  <Compound>
Cc1onc(-c2ccccc2)c1C(=O)N[C@@H]1C(=O)N2[C@@H]1SC(C)(C)[C@@H]2C(=O)O

>  <Tgt>
S. aureus MP-549 msrA

>  <Prefix Operator>
=

>  <MIC, µg/mL>
64

$$$$
>  <Compound>
CSC1O[C@H]([C@H](NC(=O)[C@H]2NC[C@@H]3C[C@H](CC(C)C)CCO[C@H]32)[C@H](C)Cl)C(O)[C@@H](O)[C@H]1O (some centres unmarked) [FSA-513018b]

>  <Tgt>
S. aureus MP-549 msrA

>  <Prefix Operator>
=

>  <MIC, µg/mL>
0.06

$$$$
>  <Compound>
CCC[C@@H]1C[C@@H](C(=O)N[C@@H]([C@H]2O[C@H](SC)[C@H](O)[C@@H](O)[C@H]2O)[C@H](C)Cl)N(C)C1 [Clindamycin, clindamycin, reference compound]

>  <Tgt>
S. aureus MP-549 msrA

>  <Prefix Operator>
=

>  <MIC, µg/mL>
0.125

$$$$
>  <Compound>
CC[C@H]1OC(=O)[C@H](C)[C@@H](O[C@H]2C[C@@](C)(OC)[C@@H](O)[C@H](C)O2)[C@H](C)[C@@H](O[C@@H]2O[C@H](C)C[C@H](N(C)C)[C@H]2O)[C@](C)(O)C[C@@H](C)C(=O)[C@H](C)[C@@H](O)[C@]1(C)O

>  <Tgt>
S. aureus MP-549 msrA

>  <Prefix Operator>
=

>  <MIC, µg/mL>
64

$$$$
>  <Compound>
CO/N=C(\C(=O)N[C@@H]1C(=O)N2C(C(=O)O)=C(CSc3nc(=O)c(=O)[nH]n3C)CS[C@H]12)c1csc(N)n1

>  <Tgt>
S. aureus MP-549 msrA

>  <Prefix Operator>
>

>  <MIC, µg/mL>
128

$$$$

###

# System: P. aeruginosa ΔAmex OprM
# Assay Procedure: MIC (broth microdilution or agar dilution, CLSI)
# Format: cell-based
# Reported Conditions: Pseudomonas aeruginosa
Listed here: items and their measured MIC.
Observed Property: MIC (µg/mL)

>  <Compound>
CO/N=C(\C(=O)N[C@@H]1C(=O)N2C(C(=O)O)=C(CSc3nc(=O)c(=O)[nH]n3C)CS[C@H]12)c1csc(N)n1

>  <Reported Measurement>
16

$$$$
>  <Compound>
CSC1O[C@H]([C@H](NC(=O)[C@H]2NC[C@@H]3C[C@H](CC(C)C)CCO[C@H]32)[C@H](C)Cl)C(O)[C@@H](O)[C@H]1O (stereo partly drawn) [FSA-513018b]

>  <Reported Measurement>
4

$$$$
>  <Compound>
C[C@H]1COc2c(N3CCN(C)CC3)c(F)cc3c(=O)c(C(=O)O)cn1c23

>  <Reported Measurement>
0.125

$$$$

###

Listed here: items and their measured MIC.
# Tested on: broad panel of different clinical isolates
# Assay Procedure: microbe, parasite or virus in culture
# Format: cell-based
# Reported Conditions: Acinetobacter baumannii, A. baumannii HAV#664; Carbapenem R

>  <Compound>
CO/N=C(\C(=O)N[C@@H]1C(=O)N2C(C(=O)O)=C(CSc3nc(=O)c(=O)[nH]n3C)CS[C@H]12)c1csc(N)n1

>  <Prefix Operator>
=

>  <MIC / µg/mL>
64

$$$$
>  <Compound>
CCC[C@@H]1C[C@@H](C(=O)N[C@@H]([C@H]2O[C@H](SC)[C@H](O)[C@@H](O)[C@H]2O)[C@H](C)Cl)N(C)C1 [Clindamycin, clindamycin, reference compound]

>  <Prefix Operator>
=

>  <MIC / µg/mL>
128

$$$$
>  <Compound>
CSC1O[C@H]([C@H](NC(=O)[C@H]2NC[C@@H]3C[C@H](CC(C)C)CCO[C@H]32)[C@H](C)Cl)C(O)[C@@H](O)[C@H]1O (stereo partly shown) [FSA-513018b]

>  <Prefix Operator>
=

>  <MIC / µg/mL>
16

$$$$
>  <Compound>
CN[C@H](CC(C)C)C(=O)N[C@H]1C(=O)N[C@@H](CC(N)=O)C(=O)N[C@H]2C(=O)N[C@H]3C(=O)N[C@H](C(=O)N[C@H](C(=O)O)c4cc(O)cc(O)c4-c4cc3ccc4O)[C@H](O)c3ccc(c(Cl)c3)Oc3cc2cc(c3O[C@@H]2O[C@H](CO)[C@@H](O)[C@H](O)[C@H]2O[C@H]2C[C@](C)(N)[C@H](O)[C@H](C)O2)Oc2ccc(cc2Cl)[C@H]1O

>  <Prefix Operator>
>

>  <MIC / µg/mL>
128

$$$$
>  <Compound>
C[C@H]1c2cccc(O)c2C(=O)C2=C(O)[C@]3(O)C(=O)C(C(N)=O)=C(O)[C@@H](N(C)C)[C@@H]3[C@@H](O)[C@@H]21

>  <Prefix Operator>
=

>  <MIC / µg/mL>
2

$$$$
>  <Compound>
C[C@H]1COc2c(N3CCN(C)CC3)c(F)cc3c(=O)c(C(=O)O)cn1c23

>  <Prefix Operator>
=

>  <MIC / µg/mL>
64

$$$$
>  <Compound>
CC(=O)NC[C@H]1CN(c2ccc(N3CCOCC3)c(F)c2)C(=O)O1

>  <Prefix Operator>
=

>  <MIC / µg/mL>
64

$$$$

###

# Test system: S. pneumoniae MMX 3028 cErmB
# Assay Procedure: MIC (broth microdilution or agar dilution, CLSI)
# Format: cell-based
# Reported Conditions: Streptococcus pneumoniae, MMX3028CERMB; S. pneumoniae HAV#033; MMX 3028, cErmB; read-out: MIC
Listed here: items and their measured MIC.

>  <Test Smiles>
CC[C@H]1OC(=O)[C@H](C)[C@@H](O[C@H]2C[C@@](C)(OC)[C@@H](O)[C@H](C)O2)[C@H](C)[C@@H](O[C@@H]2O[C@H](C)C[C@H](N(C)C)[C@H]2O)[C@](C)(O)C[C@@H](C)CN(C)[C@H](C)[C@@H](O)[C@]1(C)O

>  <MIC>
> 64 µg/mL

$$$$
>  <Test Smiles>
CC[C@H]1OC(=O)[C@H](C)[C@@H](O[C@H]2C[C@@](C)(OC)[C@@H](O)[C@H](C)O2)[C@H](C)[C@@H](O[C@@H]2O[C@H](C)C[C@H](N(C)C)[C@H]2O)[C@](C)(O)C[C@@H](C)C(=O)[C@H](C)[C@@H](O)[C@]1(C)O

>  <MIC>
> 64 µg/mL

$$$$
